Target: T1, EsCas13d, nuclease-dead (Eubacterium siraeum, UniProt B0MS50, R295A;H300A;R849A;H854A)
T1 sequence: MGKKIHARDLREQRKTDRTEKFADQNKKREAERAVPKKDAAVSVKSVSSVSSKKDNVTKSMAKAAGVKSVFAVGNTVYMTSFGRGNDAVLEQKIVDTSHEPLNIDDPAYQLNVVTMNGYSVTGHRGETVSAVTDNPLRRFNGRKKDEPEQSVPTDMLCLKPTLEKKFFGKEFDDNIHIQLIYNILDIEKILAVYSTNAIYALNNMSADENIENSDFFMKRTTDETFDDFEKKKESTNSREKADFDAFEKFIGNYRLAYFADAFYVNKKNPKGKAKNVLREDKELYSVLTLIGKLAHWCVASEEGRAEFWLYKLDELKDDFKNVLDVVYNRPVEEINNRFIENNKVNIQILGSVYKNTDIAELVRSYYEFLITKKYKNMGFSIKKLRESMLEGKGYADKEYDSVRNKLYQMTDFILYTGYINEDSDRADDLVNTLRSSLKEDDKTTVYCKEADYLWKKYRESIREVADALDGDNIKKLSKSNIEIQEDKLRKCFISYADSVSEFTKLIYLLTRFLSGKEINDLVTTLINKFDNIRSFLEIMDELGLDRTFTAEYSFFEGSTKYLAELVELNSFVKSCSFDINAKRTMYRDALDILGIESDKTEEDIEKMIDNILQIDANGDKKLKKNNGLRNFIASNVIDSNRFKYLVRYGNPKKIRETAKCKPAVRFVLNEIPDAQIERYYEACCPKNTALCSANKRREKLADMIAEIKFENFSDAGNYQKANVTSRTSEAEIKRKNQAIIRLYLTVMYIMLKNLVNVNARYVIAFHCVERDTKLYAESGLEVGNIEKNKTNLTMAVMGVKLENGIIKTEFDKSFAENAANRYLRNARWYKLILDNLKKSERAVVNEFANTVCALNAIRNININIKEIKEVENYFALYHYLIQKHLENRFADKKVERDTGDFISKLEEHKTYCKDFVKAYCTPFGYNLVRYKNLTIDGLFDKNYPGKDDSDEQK
Assay: crRNA (strand 1, pre-loaded); Mg2+; 40 mM Tris-HCl pH 7.5, 150 mM NaCl, 6 mM MgCl2, 1 mM DTT, 0.1% Tween-20, 0.2 mg/ml BSA; 25 C; 10 min per concentration, then washed
Settings: tags: His6-TwinStrep-SUMO cleaved; N-terminal SNAP kept (SNAP-Surface 488); label: 3' end held by stalled T7 RNA polymerase
pKd: −log10 of the molar value.
Would you mind labelling by pKd? At or over 8 is Y, under is N.

BINDER: target 3 insA 3' of 4,insG 3' of 1 (mixed) RNA 1: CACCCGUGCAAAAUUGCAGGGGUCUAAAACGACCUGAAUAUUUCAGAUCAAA RNA 2: GGGAAUGGAUCCACAUCUACGAAUUCGUUUUUGAUCUGAAAUAUUCAGAGUCGUGCAGAUCGGAAGAGCACACGU
CLASS_NAME: N
//
BINDER: target 1 insU 3' of 20,insG 3' of 9 (mixed) RNA 1: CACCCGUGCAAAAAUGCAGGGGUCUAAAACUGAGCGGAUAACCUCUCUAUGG RNA 2: GGGAAUGGAUCCACAUCUACGAAUUCGUACCAUUAGAGAGGUUAGUCCGCUCACCGAGAUCGGAAGAGCACACGU
CLASS_NAME: N
//
BINDER: target 1 insU 3' of 22,insA 3' of 5 (mixed) RNA 1: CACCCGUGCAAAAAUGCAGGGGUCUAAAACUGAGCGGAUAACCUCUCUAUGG RNA 2: GGGAAUGGAUCCACAUCUACGAAUUCGUACUCAUAGAGAGGUUAUCCGACUCACCGAGAUCGGAAGAGCACACGU
CLASS_NAME: N
//
BINDER: target 3 U2G,G4U (mixed) RNA 1: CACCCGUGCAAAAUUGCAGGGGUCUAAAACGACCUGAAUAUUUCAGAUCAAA RNA 2: GGGAAUGGAUCCACAUCUACGAAUUCGUUUUUGAUCUGAAAUAUUCAUGGCUGCAGAUCGGAAGAGCACACGU
CLASS_NAME: Y

Hello, the source for this data is paper PMC10786891, in case you need it.
